The reported numbers originate from paper PMC9095466.

tested on: SARS-CoV-2 P.1 (Gamma); experiment: microbe, parasite or virus in culture; assay type: cell-based; settings: Severe acute respiratory syndrome coronavirus 2, 72 h; Calu-3 cells, Fig. 3d, n = 4; read-out: EC50, dsRNA staining, Variant P.1 (Gamma)
endpoint-name: EC50 (nM)
Record the value in nM, omitting the unit from your answer.

Q. Given the entry CS(=O)(=O)NC(CCC(N)=O)C(=O)NC(Cc1ccccc1)C(=O)NC(CCCNC(=N)N)C(=O)c1nc2ccccc2s1 (stereo not shown) , report its measured EC50.
A. 5.4

###

system: SARS-CoV-2 B.1.1.7 (Alpha); assay: microbe, parasite or virus in culture; format: cell-based; details: Severe acute respiratory syndrome coronavirus 2; Calu-3 cells, Fig. 3c, n = 4; read-out: EC50, N staining, Variant B.1.1.7 (Alpha)
endpoint-name: pEC50
Keep it numeric: pEC50 is minus log10 of the concentration in mol/L.

Q. Using the record for CS(=O)(=O)NC(CCC(N)=O)C(=O)NC(Cc1ccccc1)C(=O)NC(CCCNC(=N)N)C(=O)c1nc2ccccc2s1 (stereo not shown) , report its pEC50.
A. 8.68
